tested on: L1210 leukemia ip in BDF1 mice, survival T/C; experiment: NCI In Vivo Anticancer Drug Screen. Data for tumor model L1210 Leukemia (intraperitoneal) in B6D2F1 (BDF1) mice; details: endpoint: mean survival time; dose: 400.0 mg/kg/injection; schedule: Q01DX009 (ip); vehicle: saline; higher = longer survival
Inconclusive results and toxic doses are left out.
Could you please report measured T/C for the items listed next?

IN: Quick one: T/C for `CN(C)[C@@H]1C(=O)C(C(=O)NCNCCCC(=O)O)=C(O)[C@@]2(O)C(=O)C3=C(O)c4c(O)cccc4[C@@](C)(O)[C@H]3C[C@@H]12` ?
OUT: 94 % of control

IN: What does the data say about its T/C? Entry: CC(=O)OC1C=COC(C)C1OC(C)=O (configuration not stated)
OUT: 102 % of control

IN: Quick one: T/C for `O=C(O)C/C1=C/CCCCCC1` ?
OUT: 93 % of control

IN: Entry under review: `CCOC(=O)C1(C(=O)OCC)C/C=C/CC(C(=O)OCC)(C(=O)OCC)C/C=C/C1` . Reported T/C?
OUT: 92 % of control

IN: I'd like to know its T/C. The compound in question is `Cc1cc(CO)c(O)c(CO)c1`
OUT: 103 % of control

IN: GET /values?readout=T/C&item= CC(=O)OCC1OC(n2cnc3c(N)ncnc32)C(OC(C)=O)C1OC(C)=O (configuration not stated)
OUT: 109 % of control

IN: State the recorded T/C for this entry: Cc1ccccc1OCC(O)CO (configuration not stated)
OUT: 98 % of control
